Numbers sourced from PubChem BioAssay (NCI).

tested on: SNB-75 CNS; test: NCI-60 one-dose screen, 48 h (100 = growth as untreated, 0 = no growth, -100 = all killed); conditions: 10 µM unless noted
The panel holds about 83,000 compounds, 20% with a hit somewhere; the sample as a whole holds those more often.
Decision: growth >= 80% yields Fulfilled, all other cases yield Not fulfilled.

Prompt line: Is growth for `CCOC(=O)C#Cc1c(C(=O)OCC)nnn1[C@@H]1O[C@H](COC(C)=O)[C@@H](OC(C)=O)[C@H]1OC(C)=O` at or above 80%?
Response line: Fulfilled

Prompt line: Is growth for `NNc1ccc(S(N)(=O)=O)cc1` at or above 80%?
Response line: Fulfilled

Prompt line: Is growth for CCN1C(=O)N(CC)C2C1N=C(SC)N2/N=C/C=C/c1ccccc1OC (centres undefined) at or above 80%?
Response line: Not fulfilled

Prompt line: Is growth for `Cc1cc2nc(CN)[nH]c2cc1C` at or above 80%?
Response line: Fulfilled

Prompt line: Is growth for `COc1cc([N+](=O)[O-])cc(OC)c1OC` at or above 80%?
Response line: Fulfilled

Prompt line: Is growth for `COc1ccc2nc3ccccc3c(NCc3ccc(C)cc3)c2c1` at or above 80%?
Response line: Not fulfilled

====

tested on: HCC-2998 colon; test: NCI-60 one-dose screen, 48 h (100 = growth as untreated, 0 = no growth, -100 = all killed); conditions: 10 µM unless noted
This is part of a sample that, as a whole, favours compounds with a hit. Of some 83,000 tested, about 20% had one in any assay.
For each of the molecules below, state its growth.
// return numeric value only (unit: %, not printed)

Prompt line: Lab request: please report growth under test system HCC-2998 colon for N/C(=N\OC(=O)c1ccccc1)C(Cc1ccccc1)C(=O)NOC(=O)c1ccccc1 (centres undefined)
Response line: 96.4

Prompt line: Lab request: please report growth under test system HCC-2998 colon for `O=C(/C=C/c1ccccc1)c1c[nH]c2ccccc2c1=O`
Response line: 51.3

Prompt line: Lab request: please report growth under test system HCC-2998 colon for COc1ccc(C(=O)OC2C(OC3C(O)COC(O[C@H]4C[C@H]5[C@@H]6CC=C7C[C@@H](O)CC[C@]7(C)[C@H]6CC[C@]5(C)[C@H]4[C@H](C)C(=O)CCC(C)C)C3OC(N)=O)OCC(O)C2O)cc1 (some centres undefined)
Response line: 52.7

Prompt line: Lab request: please report growth under test system HCC-2998 colon for CNC1=C([N+](=O)[O-])C(c2ccccc2O)C(C#N)=C(c2cccs2)O1 (centres undefined)
Response line: 114

Prompt line: Lab request: please report growth under test system HCC-2998 colon for `COc1ccc(-c2cnc(-c3ccncc3-c3cccc(OC)c3)o2)cc1`
Response line: 17.3

Prompt line: Lab request: please report growth under test system HCC-2998 colon for `CN(C)c1ccc(C2(Cl)c3ccccc3N(C)c3ccccc32)cc1`
Response line: 77.4

Prompt line: Lab request: please report growth under test system HCC-2998 colon for `O=C(Nc1ccncc1)C(=O)c1cn(S(=O)(=O)c2cccc(Cl)c2F)c2ccccc12`
Response line: 66.4

Prompt line: Lab request: please report growth under test system HCC-2998 colon for `CC(=O)Nc1c(Br)cc2c(c1Br)Cc1cc(Br)ccc1-2`
Response line: 102

Prompt line: Lab request: please report growth under test system HCC-2998 colon for `c1cc2c(cc1-c1cnc3nonc3n1)OCO2`
Response line: 107
